# credit: the supplement of paper PMC11451515

Tested on: SEM cells
run_description: AUC of viability dose-response curve (% viability x log10 dose units); higher = less sensitive
condition_summary: RPMI 5 mM glucose + 10% FBS; 48 h
measurement_name: AUC of viability dose-response curve

Below, each entry is followed by its recorded AUC of viability dose-response curve result.
| compound | AUC of viability dose-response curve |
| --- | --- |
| C[C@@H]1O[C@@H](O[C@H]\2CC[C@]\3(C)[C@@H]4CC[C@]5(C)[C@@H](CC[C@@]5(O)[C@H]4CCC3=C2)C/6=C/OC(=O)/C=C6)[C@H](O)[C@H](O)[C@@H]1O | 193 |
| Cn1c(=O)c2c(ncn2CC(O)CO)n(C)c1=O (stereo not drawn) | 469 |

GET /values?readout=AUC of viability dose-response curve&item= `COC1=CC=C2C(=CC=NC2=C1)OC3=CC=C(NC(=O)\C4=C(C)\N(CC(C)(C)O)N(C4=O)C5=CC=CC=C5)C=C3F` 379

----------
System: P12-Ichikawa
run_description: cell viability relative to DMSO control; higher = less cytotoxic
condition_summary: RPMI 5 mM glucose + 10% FBS; 48 h; 0.000781 µM
measurement_name: cell viability (%)
Write down the numeric answer in % and omit the unit.

Previously resolved entries follow.
| compound | measurement_units | cell viability |
| --- | --- | --- |
| Cc1ccc(F)c(NC(=O)Nc2ccc(-c3cccc4[nH]nc(N)c34)cc2)c1 | % | 112 |
| c1cc(OCCN2CCCCC2)cc(-c2n[nH]c3ccc(-c4nc[nH]n4)cc23)c1 | % | 112 |
| CO[C@@H]1[C@H](N(C)C(=O)c2ccccc2)C[C@H]2O[C@]1(C)n1c3ccccc3c3c4c(c5c6ccccc6n2c5c31)C(=O)NC4 | % | 112 |

Form field: reported cell viability of CN1C(=O)COc2c(C(=O)NC3CN4CCC3CC4)cc(Cl)cc21 (stereo not drawn) 95

Record: `CN(C)[C@H]\1[C@@H]2[C@@H](O)[C@@H]\3C(=C)C4=C(C(=CC=C4)O)C(=O)C3=C(\O)[C@@]2(O)C(=O)\C(=C1O)C(N)=O` 115

Consider next the compound `C[C@@H]1CN(CC(=O)N2CC(C)(C)c3ncc(Cc4ccc(F)cc4)cc32)[C@@H](CN2CCOC[C@H]2C)CN1` in the same way. 102

Entry to check: `N#Cc1c(C2CCNCC2)cc(-c2c(O)cccc2OCC2CC2)nc1N` 116

And for `CCC1=C(C)CN(C(=O)NCCc2ccc(S(=O)(=O)NC(=O)N[C@H]3CC[C@H](C)CC3)cc2)C1=O` ? 89.5

----------
# cell viability per record follows
Tested on: NOMO1
run_description: cell viability relative to DMSO control; higher = less cytotoxic
condition_summary: HPLM + 10% dialyzed FBS; 48 h; 0.569 µM
Numeric only. Scale: %

| compound | quantitative_result |
| --- | --- |
| COc1ccc(-c2nc3cc(C4=NNC(=O)CC4C)ccc3[nH]2)cc1 (stereo not drawn) | 112 |
| CC(C)[C@@H](N(CCCN)C(=O)C1=CC=C(C)C=C1)C/2=C(\CC3=CC=CC=C3)C(=O)C4=C(O2)C=C(Cl)C=C4 | 34.9 |
| CO[C@@H]1[C@H](N(C)C(=O)c2ccccc2)C[C@H]2O[C@]1(C)n1c3ccccc3c3c4c(c5c6ccccc6n2c5c31)C(=O)NC4 | 135 |
| CCC(CC)[C@H](NC(C)=O)[C@@H]1[C@H](O)[C@@H](C(=O)O)C[C@H]1NC(=N)N | 90.3 |
| CN(C)[C@H]\1[C@@H]2[C@@H](O)[C@@H]\3C(=C)C4=C(C(=CC=C4)O)C(=O)C3=C(\O)[C@@]2(O)C(=O)\C(=C1O)C(N)=O | 111 |

Quick one: cell viability for `CCCCCCCCCCCCCCCC(=O)OC[C@@H](NC(=O)C(Cl)Cl)[C@H](O)c1ccc([N+](=O)[O-])cc1` ? 140

Check Clc1ccc(COC(Cn2ccnc2)c2ccc(Cl)cc2Cl)cc1 (stereo not drawn) too. 111

Same for CC(=O)SCC(Cc1ccccc1)C(=O)NCC(=O)OCc1ccccc1 (stereo not drawn) 107
